biological target: CDK9/cyclin T1 (Homo sapiens) (UniProt O60563+P50750); assay: Inhibition of recombinant full-length human CDK9/cyclinT1 at 1 uM using KTFCGTPEYLAPEVRREPRILSEEEQEMFRDFDYIADWC peptide as substrate measured after 40 mins in presence of [gamma33P]ATP by scintillation counting method relative to control; format: protein-complex assay
Reported metric: inhibition (%)

[[record]]
structure_string = "CN(C)C(=O)c1cc2cnc(Nc3ccc(C(=O)NCCCCCCN=C=S)cc3)nc2n1C1CCCC1"
value_observed = 96

[[record]]
structure_string = "CN(C)C(=O)c1cc2cnc(Nc3ccc(NC(=O)CCCCCCCN=C=S)c(F)c3)nc2n1C1CCCC1"
value_observed = 87

[[record]]
structure_string = "CN(C)C(=O)c1cc2cnc(Nc3ccc(C(=O)NCCCCCCN=C=S)cn3)nc2n1C1CCCC1"
value_observed = 73

[[record]]
structure_string = "CN(C)C(=O)c1cc2cnc(Nc3ccc(S(=O)(=O)NCCCCCN=C=S)cc3)nc2n1C1CCCC1"
value_observed = 98


* * *

molecular target: CDK9/cyclin T1 (Homo sapiens) (UniProt O60563+P50750); assay: Inhibition of recombinant full-length human CDK9/cyclinT1 at 500 nM using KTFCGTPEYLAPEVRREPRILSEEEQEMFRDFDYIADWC peptide as substrate measured after 40 mins in presence of [gamma33P]ATP by scintillation counting method relative to control; type: protein-complex assay
This section presents molecules with their documented inhibition values.
Reported metric: inhibition (%)

[[record]]
structure_string = "CN(C)C(=O)c1cc2cnc(Nc3ccc(NC(=O)CCCCCCCN=C=S)cc3)nc2n1C1CCCC1"
test_target = "CDK9/cyclin T1 (Homo sapiens) (UniProt O60563+P50750)"
reported_metric = "inhibition"
value_observed = 98

[[record]]
structure_string = "CN(C)C(=O)c1cc2cnc(Nc3ccc(CNC(=O)CCCCCCCN=C=S)cc3)nc2n1C1CCCC1"
test_target = "CDK9/cyclin T1 (Homo sapiens) (UniProt O60563+P50750)"
reported_metric = "inhibition"
value_observed = 90

[[record]]
structure_string = "CN(C)C(=O)c1cc2cnc(Nc3ccc(NC(=O)CCCCCCCN=C=S)c(F)c3)nc2n1C1CCCC1"
test_target = "CDK9/cyclin T1 (Homo sapiens) (UniProt O60563+P50750)"
reported_metric = "inhibition"
value_observed = 76

[[record]]
structure_string = "CN(C)C(=O)c1cc2cnc(Nc3ccc(NC(=O)CCCCCCCN=C=S)cc3F)nc2n1C1CCCC1"
test_target = "CDK9/cyclin T1 (Homo sapiens) (UniProt O60563+P50750)"
reported_metric = "inhibition"
value_observed = 96

[[record]]
structure_string = "CN(C)C(=O)c1cc2cnc(Nc3ccc(C(=O)NCCCN=C=S)cn3)nc2n1C1CCCC1"
test_target = "CDK9/cyclin T1 (Homo sapiens) (UniProt O60563+P50750)"
reported_metric = "inhibition"
value_observed = 40

[[record]]
structure_string = "CN(C)C(=O)c1cc2cnc(Nc3ccc(C(=O)NCCCCN=C=S)cn3)nc2n1C1CCCC1"
test_target = "CDK9/cyclin T1 (Homo sapiens) (UniProt O60563+P50750)"
reported_metric = "inhibition"
value_observed = 41

[[record]]
structure_string = "CN(C)C(=O)c1cc2cnc(Nc3ccc(C(=O)NCCCCN=C=S)cc3F)nc2n1C1CCCC1"
test_target = "CDK9/cyclin T1 (Homo sapiens) (UniProt O60563+P50750)"
reported_metric = "inhibition"
value_observed = 97

[[record]]
structure_string = "CN(C)C(=O)c1cc2cnc(Nc3cccc(NC(=O)CCCCCCCN=C=S)c3)nc2n1C1CCCC1"
test_target = "CDK9/cyclin T1 (Homo sapiens) (UniProt O60563+P50750)"
reported_metric = "inhibition"
value_observed = 98

[[record]]
structure_string = "CN(C)C(=O)c1cc2cnc(Nc3ccc(C(=O)NCCCCCN=C=S)cc3F)nc2n1C1CCCC1"
test_target = "CDK9/cyclin T1 (Homo sapiens) (UniProt O60563+P50750)"
reported_metric = "inhibition"
value_observed = 96

[[record]]
structure_string = "CN(C)C(=O)c1cc2cnc(Nc3ccc(N=C=S)cc3)nc2n1C1CCCC1"
test_target = "CDK9/cyclin T1 (Homo sapiens) (UniProt O60563+P50750)"
reported_metric = "inhibition"
value_observed = 93

[[record]]
structure_string = "CN(C)C(=O)c1cc2cnc(Nc3ccc(NC(=O)CCCCCN=C=S)cc3)nc2n1C1CCCC1"
test_target = "CDK9/cyclin T1 (Homo sapiens) (UniProt O60563+P50750)"
reported_metric = "inhibition"
value_observed = 99

[[record]]
structure_string = "CN(C)C(=O)c1cc2cnc(Nc3ccc(C(=O)NCCCCCN=C=S)cc3O)nc2n1C1CCCC1"
test_target = "CDK9/cyclin T1 (Homo sapiens) (UniProt O60563+P50750)"
reported_metric = "inhibition"
value_observed = 91

[[record]]
structure_string = "CN(C)C(=O)c1cc2cnc(Nc3ccc(S(=O)(=O)NCCCCN=C=S)cc3)nc2n1C1CCCC1"
test_target = "CDK9/cyclin T1 (Homo sapiens) (UniProt O60563+P50750)"
reported_metric = "inhibition"
value_observed = 99

[[record]]
structure_string = "CN(C)C(=O)c1cc2cnc(Nc3ccc(NC(=O)CCCCCCN=C=S)cc3)nc2n1C1CCCC1"
test_target = "CDK9/cyclin T1 (Homo sapiens) (UniProt O60563+P50750)"
reported_metric = "inhibition"
value_observed = 98

[[record]]
structure_string = "CN(C)C(=O)c1cc2cnc(Nc3ccc(C(=O)NCCCCCCCN=C=S)cc3)nc2n1C1CCCC1"
test_target = "CDK9/cyclin T1 (Homo sapiens) (UniProt O60563+P50750)"
reported_metric = "inhibition"
value_observed = 99

[[record]]
structure_string = "CN(C)C(=O)c1cc2cnc(Nc3ccc(C(=O)NCCCN=C=S)cc3F)nc2n1C1CCCC1"
test_target = "CDK9/cyclin T1 (Homo sapiens) (UniProt O60563+P50750)"
reported_metric = "inhibition"
value_observed = 98

[[record]]
structure_string = "CN(C)C(=O)c1cc2cnc(Nc3ccc(C(=O)NCCCCN=C=S)cc3O)nc2n1C1CCCC1"
test_target = "CDK9/cyclin T1 (Homo sapiens) (UniProt O60563+P50750)"
reported_metric = "inhibition"
value_observed = 89

[[record]]
structure_string = "CN(C)C(=O)c1cc2cnc(Nc3ccc(S(=O)(=O)NCCCN=C=S)cc3)nc2n1C1CCCC1"
test_target = "CDK9/cyclin T1 (Homo sapiens) (UniProt O60563+P50750)"
reported_metric = "inhibition"
value_observed = 96

[[record]]
structure_string = "CN(C)C(=O)c1cc2cnc(Nc3ccc(C(=O)NCCCCCN=C=S)cn3)nc2n1C1CCCC1"
test_target = "CDK9/cyclin T1 (Homo sapiens) (UniProt O60563+P50750)"
reported_metric = "inhibition"
value_observed = 37

[[record]]
structure_string = "CN(C)C(=O)c1cc2cnc(Nc3ccc(C(=O)NCCCCN=C=S)cc3)nc2n1C1CCCC1"
test_target = "CDK9/cyclin T1 (Homo sapiens) (UniProt O60563+P50750)"
reported_metric = "inhibition"
value_observed = 98

[[record]]
structure_string = "CN(C)C(=O)c1cc2cnc(Nc3ccc(C(=O)NCCCCCCN=C=S)cc3F)nc2n1C1CCCC1"
test_target = "CDK9/cyclin T1 (Homo sapiens) (UniProt O60563+P50750)"
reported_metric = "inhibition"
value_observed = 95

[[record]]
structure_string = "CN(C)C(=O)c1cc2cnc(Nc3ccc(C(=O)NCCCCCCN=C=S)cc3O)nc2n1C1CCCC1"
test_target = "CDK9/cyclin T1 (Homo sapiens) (UniProt O60563+P50750)"
reported_metric = "inhibition"
value_observed = 5

[[record]]
structure_string = "CN(C)C(=O)c1cc2cnc(Nc3ccc(N4CCN(C(=O)CCCCCCCN=C=S)CC4)cn3)nc2n1C1CCCC1"
test_target = "CDK9/cyclin T1 (Homo sapiens) (UniProt O60563+P50750)"
reported_metric = "inhibition"
value_observed = 3

[[record]]
structure_string = "CN(C)C(=O)c1cc2cnc(Nc3ccc(C(=O)NCCCCCCN=C=S)cn3)nc2n1C1CCCC1"
test_target = "CDK9/cyclin T1 (Homo sapiens) (UniProt O60563+P50750)"
reported_metric = "inhibition"
value_observed = 27

[[record]]
structure_string = "CN(C)C(=O)c1cc2cnc(Nc3ccc(C(=O)NCCCCCCCN=C=S)cn3)nc2n1C1CCCC1"
test_target = "CDK9/cyclin T1 (Homo sapiens) (UniProt O60563+P50750)"
reported_metric = "inhibition"
value_observed = 18


* * *

This section presents compounds with their documented inhibition values.
target: CDK9/cyclin T1 (Homo sapiens) (UniProt O60563+P50750); test: Inhibition of recombinant full-length human CDK9/cyclinT1 at 1 uM using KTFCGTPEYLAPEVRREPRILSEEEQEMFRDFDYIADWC peptide as substrate measured after 40 mins in presence of [gamma33P]ATP by scintillation counting method relative to control; assay type: protein-complex assay
Reported metric: inhibition (%)

[[record]]
structure_string = "CN(C)C(=O)c1cc2cnc(Nc3ccc(C(=O)NCCCCCCCN=C=S)cc3F)nc2n1C1CCCC1"
test_target = "CDK9/cyclin T1 (Homo sapiens) (UniProt O60563+P50750)"
reported_metric = "inhibition"
value_observed = 92

[[record]]
structure_string = "CN(C)C(=O)c1cc2cnc(Nc3ccc(C(=O)NCCCCN=C=S)cc3)nc2n1C1CCCC1"
test_target = "CDK9/cyclin T1 (Homo sapiens) (UniProt O60563+P50750)"
reported_metric = "inhibition"
value_observed = 99

[[record]]
structure_string = "CN(C)C(=O)c1cc2cnc(Nc3ccc(C(=O)NCCCCCN=C=S)cn3)nc2n1C1CCCC1"
test_target = "CDK9/cyclin T1 (Homo sapiens) (UniProt O60563+P50750)"
reported_metric = "inhibition"
value_observed = 87

[[record]]
structure_string = "CN(C)C(=O)c1cc2cnc(Nc3ccc(S(=O)(=O)NCCCCN=C=S)cc3)nc2n1C1CCCC1"
test_target = "CDK9/cyclin T1 (Homo sapiens) (UniProt O60563+P50750)"
reported_metric = "inhibition"
value_observed = 98

[[record]]
structure_string = "CN(C)C(=O)c1cc2cnc(Nc3ccc(N=C=S)cc3)nc2n1C1CCCC1"
test_target = "CDK9/cyclin T1 (Homo sapiens) (UniProt O60563+P50750)"
reported_metric = "inhibition"
value_observed = 96

[[record]]
structure_string = "CN(C)C(=O)c1cc2cnc(Nc3ccc(NC(=O)CCCCCCCN=C=S)cc3F)nc2n1C1CCCC1"
test_target = "CDK9/cyclin T1 (Homo sapiens) (UniProt O60563+P50750)"
reported_metric = "inhibition"
value_observed = 95

[[record]]
structure_string = "CN(C)C(=O)c1cc2cnc(Nc3ccccc3NC(=O)CCCCCCCN=C=S)nc2n1C1CCCC1"
test_target = "CDK9/cyclin T1 (Homo sapiens) (UniProt O60563+P50750)"
reported_metric = "inhibition"
value_observed = 11

[[record]]
structure_string = "CN(C)C(=O)c1cc2cnc(Nc3ccc(S(=O)(=O)NCCCCCCCN=C=S)cc3)nc2n1C1CCCC1"
test_target = "CDK9/cyclin T1 (Homo sapiens) (UniProt O60563+P50750)"
reported_metric = "inhibition"
value_observed = 97

[[record]]
structure_string = "CN(C)C(=O)c1cc2cnc(Nc3ccc(NC(=O)CCCCCCN=C=S)cc3)nc2n1C1CCCC1"
test_target = "CDK9/cyclin T1 (Homo sapiens) (UniProt O60563+P50750)"
reported_metric = "inhibition"
value_observed = 99

[[record]]
structure_string = "CN(C)C(=O)c1cc2cnc(Nc3ccc(S(=O)(=O)NCCCCCCN=C=S)cc3)nc2n1C1CCCC1"
test_target = "CDK9/cyclin T1 (Homo sapiens) (UniProt O60563+P50750)"
reported_metric = "inhibition"
value_observed = 96

[[record]]
structure_string = "CN(C)C(=O)c1cc2cnc(Nc3ccc(C(=O)NCCCCCCCN=C=S)cc3O)nc2n1C1CCCC1"
test_target = "CDK9/cyclin T1 (Homo sapiens) (UniProt O60563+P50750)"
reported_metric = "inhibition"
value_observed = 84

